Recorded pIC50 values for a group of molecules are listed next.
Tested on: Poly [ADP-ribose] polymerase 2 (Homo sapiens)
Sequence (Q9UGN5 whole entry): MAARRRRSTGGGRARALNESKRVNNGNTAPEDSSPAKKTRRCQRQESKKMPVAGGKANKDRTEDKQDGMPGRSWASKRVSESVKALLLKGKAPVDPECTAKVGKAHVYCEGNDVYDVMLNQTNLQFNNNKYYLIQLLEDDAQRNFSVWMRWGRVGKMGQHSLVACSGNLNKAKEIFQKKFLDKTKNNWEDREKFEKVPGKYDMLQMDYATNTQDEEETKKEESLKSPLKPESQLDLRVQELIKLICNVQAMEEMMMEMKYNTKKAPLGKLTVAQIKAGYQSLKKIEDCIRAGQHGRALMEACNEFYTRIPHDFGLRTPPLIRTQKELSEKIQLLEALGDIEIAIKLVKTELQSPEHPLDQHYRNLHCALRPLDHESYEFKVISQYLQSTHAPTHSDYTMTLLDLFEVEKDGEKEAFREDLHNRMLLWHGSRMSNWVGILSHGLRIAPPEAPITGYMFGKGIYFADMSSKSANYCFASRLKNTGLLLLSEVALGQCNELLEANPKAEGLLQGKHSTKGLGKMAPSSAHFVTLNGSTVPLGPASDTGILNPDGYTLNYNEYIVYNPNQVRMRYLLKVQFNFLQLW
Procedure text: Inhibition of human recombinant PARP2 expressed in Escherichia coli BL21(DE3) incubated for 1 hr by ELISA assay
pIC50: −log10 of the molar value.

{"Molecule": "CC(C)CCN1CCN(C(=O)c2cc(Cn3c(=O)[nH]c(=O)c4ccccc43)ccc2F)CC1=O", "Tested on": "Poly [ADP-ribose] polymerase 2 (Homo sapiens)", "pIC50": 9.04}
{"Molecule": "O=C1CN(C(=O)c2cc(Cn3c(=O)[nH]c(=O)c4ccccc43)ccc2F)CCN1CC1CCCC1", "Tested on": "Poly [ADP-ribose] polymerase 2 (Homo sapiens)", "pIC50": 10.00}
{"Molecule": "CC(C)CN1CCN(C(=O)c2cc(Cn3c(=O)[nH]c(=O)c4ccccc43)ccc2F)CC1=O", "Tested on": "Poly [ADP-ribose] polymerase 2 (Homo sapiens)", "pIC50": 9.42}
{"Molecule": "COCCN1CCN(C(=O)c2cc(Cn3c(=O)[nH]c(=O)c4ccccc43)ccc2F)CC1=O", "Tested on": "Poly [ADP-ribose] polymerase 2 (Homo sapiens)", "pIC50": 9.08}
{"Molecule": "C#CCN1CCN(C(=O)c2cc(Cn3c(=O)[nH]c(=O)c4ccccc43)ccc2F)CC1=O", "Tested on": "Poly [ADP-ribose] polymerase 2 (Homo sapiens)", "pIC50": 8.53}
{"Molecule": "CCC(C)N1CCN(C(=O)c2cc(Cn3c(=O)[nH]c(=O)c4ccccc43)ccc2F)CC1=O (centres undefined)", "Tested on": "Poly [ADP-ribose] polymerase 2 (Homo sapiens)", "pIC50": 9.36}
{"Molecule": "C=CCN1CCN(C(=O)c2cc(Cn3c(=O)[nH]c(=O)c4ccccc43)ccc2F)CC1=O", "Tested on": "Poly [ADP-ribose] polymerase 2 (Homo sapiens)", "pIC50": 9.15}
{"Molecule": "O=C(c1cc(Cn2c(=O)[nH]c(=O)c3ccccc32)ccc1F)N1CC(=O)N2CCCCC2C1 (centres undefined)", "Tested on": "Poly [ADP-ribose] polymerase 2 (Homo sapiens)", "pIC50": 8.47}
{"Molecule": "O=C1CN(C(=O)c2cc(Cn3c(=O)[nH]c(=O)c4ccccc43)ccc2F)CCN1CC1CCCCC1", "Tested on": "Poly [ADP-ribose] polymerase 2 (Homo sapiens)", "pIC50": 9.62}
